measurement-target: EPHA8 (human)
method: radiometric filter-binding kinase assay, Kinase HotSpot
condition-info: compound 0.5 µM; ATP 10 µM
test-readout: residual activity (%)
// units = %; emit number, no label

Entry under review: N#CCCc1ccc2c(c1)-c1[nH]c3ccc([N+](=O)[O-])cc3c1CC(=O)N2 . Reported residual activity?
105

Entry under review: CCCCc1c(-c2ccc(O)cc2)[nH]c2nccnc12 . Reported residual activity?
97.4

Entry under review: Cc1cc(Nc2nc(-c3ccccc3)nc3ccccc23)n[nH]1 . Reported residual activity?
98.2

Entry under review: COc1cccc(-c2cc(=O)c3ccccc3o2)c1N . Reported residual activity?
96.3

Entry under review: Cn1cc(/C=C2\C(=O)Nc3ccc(S(N)(=O)=O)cc32)c2ccccc21 . Reported residual activity?
83.4

Entry under review: CCc1nc(-c2ccc(OC)cc2)[nH]c1-c1ccncc1 . Reported residual activity?
93.5
